Target: T1, Human TNFR2 recombinant protein (Sino 10417-H08H) (human, UniProt P20333 23-257)
T1 construct: also called hTNFR2 (His tag)
T1 sequence (looked up): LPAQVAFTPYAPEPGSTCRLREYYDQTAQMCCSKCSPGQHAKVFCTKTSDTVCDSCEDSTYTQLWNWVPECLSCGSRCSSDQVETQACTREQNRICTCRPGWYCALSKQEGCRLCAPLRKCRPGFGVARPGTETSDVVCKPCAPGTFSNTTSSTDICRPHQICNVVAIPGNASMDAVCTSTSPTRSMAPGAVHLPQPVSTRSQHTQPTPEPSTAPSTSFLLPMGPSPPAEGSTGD
Experiment: SPR Biacore, antibody on Protein A chip, TNFR2 analyte
Catalogue of pKd values
Bear in mind: pKd is minus log10 of a mol/L concentration; give just that figure.

Past entries and their recorded results:
[[record]]
binder = "TNFR2 antibody #224 (antibody, V domains shown) VH: EVQLQESGPEIVKPGASVKLSCTASGFNNKDIYMHWVKQRPEQGLEWIGRIDPATGNTKHDPKFQDKATLSSDTSSNTAYLQFSSLTSEDTAVYYCAHSPYGDFGAMDYWGQGTTVTVSS VL: DIQMTQSPAIMSASLGERVTMTCTASSSVSSNYLHWYQQKPGSSPKLWIYSTSNLPSGVPARFSGSGSGTSYSLTISSMEAEDAATYYCHQYHRSPWTFGGGTKLEIK"
observed_measurement = 10.00

[[record]]
binder = "TNFR2 antibody #395 (antibody, V domains shown) VH: EVQLQESGPVLVQPSQSLSITCTVSGFSLTSYSVHWVRQSPGKGLEWLGVIWSDGGTDYSAAFISRLSISKDNSKSQVFFKMNSLQADDTAIYYCARNDDGGDYAMDYWGQGTTVTVSS VL: EIVLTQSPALMSASPGEKVTMTCSASSSVSYMYWYQQKPRSSPKPWIYLTSNLASGVPARFSGSGSGTSYSLTISSMEAEDAATYYCQQWSSNPLTFGAGTKLEIK"
observed_measurement = 9.85

[[record]]
binder = "TNFR2 antibody #133 (antibody, V domains shown) VH: EVQLQESGAELVRSGASVKLSCTASGFNIKDYYIQWVKQRPEQGLEWIGWIDPESGNTKYAPKFQDKATMTADTSSNTAYLQLSGLTSEDSAVYYCNAYYDYDGSMDYWGQGTTVTVSS VL: DIVMTQSPLSLPVSLGDQASISCRSSQSLVHSNGNTYLHWYLQKPGQSPKLLIYKVSNRFSGVPDRFSGSGSGTDFTLKISRVETDDLGVYFCSQSTHVPTWTFGGGTKLEIK"
observed_measurement = 8.53

[[record]]
binder = "TNFR2 antibody #226 (antibody, V domains shown) VH: EVQLQESGAELVRPGASVKLSCKASGYSFTNYWMNWVKQRPGQGLEWIGMIHPSDSETRLNQKFKDKATLTVDKSSSTAYMQLSSPTSEDSAVYYCARGEGLGAARSVSMDYWGQGTTVTVSS VL: DIQMTQSPSSLSASLGDRVTISCRASQDISNYLNWYQQKPDGTVKVLIYYTALLHSGVPSRFSGSGSGTDYSLTISNLEQEDIATYFCQQGNTLPWTFGGGTKLEIK"
observed_measurement = 9.71

[[record]]
binder = "TNFR2 antibody #125 (antibody, V domains shown) VH: EVQLQESGGGLVQPGGSLNLSCAASGFAFSIYDLSWVRQTPEKRLEWVAYINNGGISTYYSDTVKGRFTISRDNAKNTLYLQMSSLKSEDTAMYYCVRGPFYGSANYFDYWGQGTTVTVSS VL: DIQMTQSPASLSLSVGETVTITCRASENIYSNLAWYQQKQGKSPQLLVYDATKLAEGVPSRFSGSESGTQYSLKINSLQSEDFGTYYCQHFWVTPWTFGGGTKLEIK"
observed_measurement = 10.17


Let's switch to this binder now.
Specify pKd for TNFR2 antibody #219 (antibody, V domains shown) VH: EVQLQESGAELVRPGASVKLSCKASGYSFTNYWMNWVKQRPGQGLEWIGMIHPSDTETRLNQNFKDKATLTVDKSSSTSYMQLSSPTSEDSAVYYCARGEGLGAARSVSMDYWGQGTTVTVSS VL: DILMTQSPSSLSASLGDRVTISCRASQDISNYLNWYQQKPDGTVKVLIYYTAILHSGVPSRFSGSGSGTDYSLTISNLEQEDIATYFCQQGNTLPWTFGGGTKLEIK and stop. 9.63

Cited source for all entries: patent US20220017630A1
